Tested on: 454973-116-R2-J3-PDC spheroids, viability, % test/control;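 note: spheroids exposed to compounds for seven days; 100% = DMSO vehicle control viability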
run_description: Anticancer human tumor 454973-116-R2-J3-PDC patient-derived pancreatic carcinoma cell line growth inhibition [GQUAD]
experimental_context: second compound 0.316 µM; first compound 0.316 µM; stronger effect = lower value; spheroids with HUVEC and MSC
reported_metric: viability, T/C (%)
Please reply with the bare figure in % and do not write the unit itself.

Data request: viability, T/C for C#Cc1c(F)ccc2cc(O)cc(-c3ncc4c(N5CC6CCC(C5)N6)nc(OCC56CCCN5CC(F)C6)nc4c3F)c12 (stereo unspecified) + Cc1cnc(CNC(=O)c2c(=O)c3ccc(N4CCCN(C)CC4)nc3n3c2sc2ccccc23)cn1 ?
Data returned: 17.4

Data request: Given the entry Cn1ncnc1[C@H]1c2n[nH]c(=O)c3cc(F)cc(c23)N[C@@H]1c1ccc(F)cc1 + CN(C)c1ccc(Nc2c3ccc(NC(=O)CCN4CCCC4)cc3nc3cc(NC(=O)CCN4CCCC4)ccc23)cc1 , report its measured viability, T/C.
Data returned: 71.6

Data request: Report viability, T/C for C=CCn1c(=O)c2cnc(Nc3ccc(N4CCN(C)CC4)cc3)nc2n1-c1cccc(C(C)(C)O)n1 + CN(C)c1ccc(Nc2c3ccc(NC(=O)CCN4CCCC4)cc3nc3cc(NC(=O)CCN4CCCC4)ccc23)cc1 please.
Data returned: 59.2

Data request: Look at this molecule and give its reported viability, T/C. COc1ccc([C@@H](O)c2cc(-c3ncnc4cc(N5CCOCC5)ccc34)c(F)cc2Cl)nn1 + Cc1[nH]c2ccc(F)cc2c1-c1nc2c3cccnc3c3ncccc3c2[nH]1
Data returned: 85.4

Data request: What viability, T/C value was documented for this molecule, Cn1ncnc1[C@H]1c2n[nH]c(=O)c3cc(F)cc(c23)N[C@@H]1c1ccc(F)cc1 + Cc1cnc(CNC(=O)c2c(=O)c3ccc(N4CCCN(C)CC4)nc3n3c2sc2ccccc23)cn1 ?
Data returned: 41.6

Data request: # query: viability, T/C of entry CC1COCCN1c1cc(-c2ccnn2C)c2ccnc(-c3ccn[nH]3)c2n1 (stereo unspecified) + Cc1[nH]c2ccc(F)cc2c1-c1nc2c3cccnc3c3ncccc3c2[nH]1
Data returned: 31

Data request: Record request: viability, T/C value, item CC1COCCN1c1cc(C2(O)CC3CCC(C2)O3)c2cnn(-c3ccn[nH]3)c2n1 (stereo unspecified) + CN(C)c1ccc(Nc2c3ccc(NC(=O)CCN4CCCC4)cc3nc3cc(NC(=O)CCN4CCCC4)ccc23)cc1
Data returned: 30.6

Data request: Could you tell me which viability, T/C is on file for CC1COCCN1c1cc(-c2ccnn2C)c2ccnc(-c3ccn[nH]3)c2n1 (stereo unspecified) + CN(C)c1ccc(Nc2c3ccc(NC(=O)CCN4CCCC4)cc3nc3cc(NC(=O)CCN4CCCC4)ccc23)cc1 ?
Data returned: 31

Data request: May I ask what viability, T/C has been recorded for O=c1[nH]cc(F)c(=O)[nH]1 + Cc1cnc(CNC(=O)c2c(=O)c3ccc(N4CCCN(C)CC4)nc3n3c2sc2ccccc23)cn1 ?
Data returned: 78.1

Data request: Looking for the measured viability, T/C of CCc1c2c(nc3ccc(O)cc13)-c1cc3c(c(=O)n1C2)COC(=O)[C@]3(O)CC + Cc1[nH]c2ccc(F)cc2c1-c1nc2c3cccnc3c3ncccc3c2[nH]1 , can you help?
Data returned: 3.05

Data request: // viability, T/C lookup, key: CC[C@@]1(O)C(=O)OCc2c1cc1n(c2=O)Cc2cc3c(CN(C)C)c(O)ccc3nc2-1 + CN(C)c1ccc(Nc2c3ccc(NC(=O)CCN4CCCC4)cc3nc3cc(NC(=O)CCN4CCCC4)ccc23)cc1
Data returned: 23

Data request: Returns the measured viability, T/C for the input molecule. Input: Cc1cccc(N(C)C(=O)C2C(O)CCN2c2nc(C)cc(C(F)(F)F)c2C#N)c1 (stereo unspecified) + Cc1cnc(CNC(=O)c2c(=O)c3ccc(N4CCCN(C)CC4)nc3n3c2sc2ccccc23)cn1
Data returned: 71.3

Data request: Please give the measured viability, T/C for this molecule: O=c1[nH]cc(F)c(=O)[nH]1 + CN(C)c1ccc(Nc2c3ccc(NC(=O)CCN4CCCC4)cc3nc3cc(NC(=O)CCN4CCCC4)ccc23)cc1
Data returned: 96.8

Data request: Consider the molecule Cc1[nH]c2ccccc2c1CCNCc1ccc(/C=C/C(=O)NO)cc1 + Cc1[nH]c2ccc(F)cc2c1-c1nc2c3cccnc3c3ncccc3c2[nH]1 and give its measured viability, T/C.
Data returned: 6.45

Data request: Form field: reported viability, T/C of O=C(c1cc(Cc2n[nH]c(=O)c3ccccc23)ccc1F)N1CCN(C(=O)C2CC2)CC1 + CN(C)c1ccc(Nc2c3ccc(NC(=O)CCN4CCCC4)cc3nc3cc(NC(=O)CCN4CCCC4)ccc23)cc1
Data returned: 93.6

Data request: Return reported viability, T/C; argument: CC(C)(O)C1CCC(Nc2ccc3ncc(-c4cccc(C(F)(F)F)c4)n3n2)CC1 (stereo unspecified) + CN(C)c1ccc(Nc2c3ccc(NC(=O)CCN4CCCC4)cc3nc3cc(NC(=O)CCN4CCCC4)ccc23)cc1
Data returned: 83.9

Data request: Can you share its viability, T/C? I mean this molecule: C=CCn1c(=O)c2cnc(Nc3ccc(N4CCN(C)CC4)cc3)nc2n1-c1cccc(C(C)(C)O)n1 + Cc1[nH]c2ccc(F)cc2c1-c1nc2c3cccnc3c3ncccc3c2[nH]1
Data returned: 58.7

Data request: Fill in: viability, T/C of COc1cccc2c1C(=O)c1c(O)c3c(c(O)c1C2=O)CC(O)(C(=O)CO)CC3OC1CC(N)C(O)C(C)O1 (stereo unspecified) + CN(C)c1ccc(Nc2c3ccc(NC(=O)CCN4CCCC4)cc3nc3cc(NC(=O)CCN4CCCC4)ccc23)cc1 is ___
Data returned: 33.4

Data request: Tell me the measured viability, T/C of COc1cc(C2c3cc4c(cc3C(OC3OC5COC(C)OC5C(O)C3O)C3COC(=O)C23)OCO4)cc(OC)c1O (stereo unspecified) + CN(C)c1ccc(Nc2c3ccc(NC(=O)CCN4CCCC4)cc3nc3cc(NC(=O)CCN4CCCC4)ccc23)cc1 , please.
Data returned: 78.8

Data request: May I ask what viability, T/C has been recorded for COc1ncnc(C2CC2)c1-c1ncc2cnn(Cc3ccc(-c4nc(C(F)(F)F)cn4C(C)C)cc3)c2n1 + CN(C)c1ccc(Nc2c3ccc(NC(=O)CCN4CCCC4)cc3nc3cc(NC(=O)CCN4CCCC4)ccc23)cc1 ?
Data returned: 102

Data request: Would you mind telling me what viability, T/C value was observed for C=CC(=O)N1CCN(c2nc(=O)n(-c3c(C)ccnc3C(C)C)c3nc(-c4c(O)cccc4F)c(F)cc23)C(C)C1 (stereo unspecified) + Cc1cnc(CNC(=O)c2c(=O)c3ccc(N4CCCN(C)CC4)nc3n3c2sc2ccccc23)cn1 ?
Data returned: 71.1
